- assay.protocol: in vitro
- experimental.parameters: african green monkey, cos-7 cells
metric.name: cytotoxicity at 4 h, 20 µM (%)
# value in %; strip the unit string

**Query** Which cytotoxicity at 4 h, 20 µM value belongs to OC1(c2ccc(Cl)cc2)CCN(CCCC2(c3ccc(F)cc3)SCCS2)CC1 [UCSF8] ?
**Result** 55

---

- assay.protocol: in vitro
metric.name: log10 CC50 at 6 h (log10 of the value in µM)
A value of 2 here means CC50 at 6 h of 100 in µM, since values are log10.

**Query** Which log10 CC50 at 6 h value belongs to `O=C(CCCN1CCC(O)(c2ccc(Cl)cc2)CC1)c1ccccc1` ?
**Result** 2.58

**Query** Follow-up item: `O=C(CCCN1CCC(O)(c2ccc(Cl)cc2)CC1)c1ccccc1-c1ccccc1`
**Result** 1.65

**Query** Follow-up item: `O=C(CCCN1CCC(O)(c2ccc(Cl)cc2)CC1)c1cccc(-c2ccccc2)c1`
**Result** 1.00

**Query** Follow-up item: `O=C(CCCN1CCC(O)(c2ccc(Cl)cc2)CC1)c1ccc(-c2ccccc2)cc1`
**Result** 1.70

**Query** Follow-up item: Cc1ccc(C(=O)CCC(c2ccccc2)N2CCC(O)(c3ccc(Cl)cc3)CC2)cc1 (stereo not drawn)
**Result** 2.30

More entries:
**Query** Which log10 CC50 at 6 h value belongs to OC1(c2ccc(Cl)cc2)CCN(CCCC(O)(c2ccccc2)c2ccc(-c3ccccc3)cc2)CC1 (stereo not drawn) ?
**Result** 1.00

**Query** Follow-up item: `OC1(C2(c3ccc(Cl)cc3)SCCCS2)CCN(CCCC2(c3ccc(F)cc3)SCCS2)CC1`
**Result** 2.30

**Query** Follow-up item: CSCC(O)(CCCN1CCC(O)(c2ccc(Cl)cc2)CC1)c1ccc(F)cc1 (stereo not drawn)
**Result** 1.95

**Query** Follow-up item: `OC1(c2ccc(Cl)cc2)CCN(CCCN(Cc2ccccc2)Cc2ccc(-c3ccccc3)cc2)CC1`
**Result** 1.40

**Query** Follow-up item: OC(CCCC1(O)CCN(Cc2ccccc2)CC1)c1ccccc1 (stereo not drawn)
**Result** 2.70

**Query** Follow-up item: OC1(CCCCc2ccccc2)CCC(O)(c2ccccc2)CC1 (stereo not drawn)
**Result** 2.20

**Query** Follow-up item: `CC(=O)OC1(c2ccc(Cl)cc2)CCN(CCCC(=O)c2ccc(F)cc2)CC1`
**Result** 2.40

**Query** Follow-up item: Cc1ccc(C(=O)CC(CN2CCC(O)(c3ccc(Cl)cc3)CC2)c2ccccc2)cc1 (stereo not drawn)
**Result** 2.54

**Query** Follow-up item: `O=C(Cc1ccccc1)N(CCCN1CCC(O)(c2ccc(Cl)cc2)CC1)Cc1ccccc1`
**Result** 1.40

**Query** Follow-up item: O=C(/C=C/C[N+]1([O-])CCC(O)(c2ccc(Cl)cc2)CC1)c1ccc(F)cc1 (stereo not drawn)
**Result** 2.40

**Query** Follow-up item: `O=C(C#CCN1CCC(O)(c2ccc(Cl)cc2)CC1)c1ccc(-c2ccccc2)cc1`
**Result** 1.00

**Query** Follow-up item: `C#CCC(CC#C)(CCN1CCC(O)(c2ccc(Cl)cc2)CC1)C(=O)c1ccc(F)cc1`
**Result** 2.34

**Query** Follow-up item: `OCCNN=C(CCCN1CCC(O)(c2ccc(Cl)cc2)CC1)c1ccc(F)cc1`
**Result** 2.70

**Query** Follow-up item: `OC1(c2ccc(Cl)cc2)CCN(CCCN(CCc2ccccc2)Cc2ccccc2)CC1`
**Result** 1.60
